Origin of values: patent US10988478B1

- TESTED SYSTEM: UniProt Q9NWZ3
- Sequence (Q9NWZ3 whole entry): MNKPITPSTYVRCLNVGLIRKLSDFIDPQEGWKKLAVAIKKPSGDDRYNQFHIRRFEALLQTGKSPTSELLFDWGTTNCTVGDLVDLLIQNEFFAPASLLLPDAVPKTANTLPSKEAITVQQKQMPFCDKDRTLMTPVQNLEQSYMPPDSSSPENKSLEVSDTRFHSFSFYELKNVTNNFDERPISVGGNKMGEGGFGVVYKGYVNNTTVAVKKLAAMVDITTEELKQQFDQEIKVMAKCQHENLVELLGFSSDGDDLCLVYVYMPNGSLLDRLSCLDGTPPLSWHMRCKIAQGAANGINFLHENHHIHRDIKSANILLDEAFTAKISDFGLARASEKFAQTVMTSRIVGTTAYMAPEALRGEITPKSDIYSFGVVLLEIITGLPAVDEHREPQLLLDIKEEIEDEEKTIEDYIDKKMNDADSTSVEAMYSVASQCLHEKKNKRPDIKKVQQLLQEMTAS
- METHOD DESCRIPTION: IRAK4 kinase inhibition, Transcreener fluorescence polarization ADP assay
- CONDITIONS USED: recombinant full-length His6-IRAK4; 125 uM ATP; 90 min; Ki computed using ATP Km 642 uM
- Description: Compounds were assayed for inhibition of human IRAK4 and IRAK1 catalytic activity using recombinant enzyme produced from insect cells. Full-length IRAK4 protein, carrying an N-terminal His6-Tag, was obtained from Life Technologies (Carlsbad, Calif., USA). The IRAK1 construct was produced internally and was comprised of IRAK1 residues Arg194 to Ser712, preceded by an NH2-terminal His6 tag and the coding sequence for glutathione-S-transferase.
Answer each item with its documented pKi.
Please report pKi as the negative decimal logarithm of the molar concentration, giving only the number.

Lab book: pKi of CC1(C)Cc2cc(NC(=O)c3cnn4cccnc34)c(N3CCN(CC#N)CC3)cc2O1 noted as 8.59

Lab book: pKi of O=C(Nc1cc2c(cc1N1CCOCC1)C(=O)N(C1CCOC1)C2)c1cnn2cccnc12 (stereo not shown) [Example 254] noted as 7.59

Lab book: pKi of CC1(C)Cc2cc(NC(=O)c3cnn4cccnc34)c(N3CC[C@@](C)(CO)C3)cc2O1 noted as 7.60

Lab book: pKi of Cc1noc(CN2CCN(c3cc4c(cc3NC(=O)c3cnn5cccnc35)CC(C)(C)O4)CC2)n1 noted as 7.80

Lab book: pKi of CC1(C)Cc2cc(NC(=O)c3cnn4cccnc34)c(OC[C@H]3CCCN3)cc2O1 noted as 6.42

Lab book: pKi of C[C@@H]1CN(C)CC[C@]12Cc1cc(NC(=O)c3cnn4cccnc34)c(N3CCOCC3)cc1O2 noted as 7.54

Lab book: pKi of C[C@]1(O)CCCN(c2cc3c(cc2NC(=O)c2cnn4cccnc24)C[C@@](C)(CO)O3)CC1 noted as 8.22

Lab book: pKi of Cc1cnc2c(C(=O)Nc3cc4c(cc3N3CCN(CC(F)F)CC3)OC(C)(CO)C4)cnn2c1 (stereo not shown) noted as 8.22

Lab book: pKi of C[C@@H](CN1Cc2cc(NC(=O)c3cnn4cccnc34)c(N3CCOCC3)cc2C1=O)N1CCOCC1 noted as 8.54

Lab book: pKi of CC1(C)Cc2cc(NC(=O)c3cnn4cc(CO)cnc34)c(N3CCOCC3)cc2O1 noted as 8.19

Lab book: pKi of CC1(C)Cc2cc(NC(=O)c3cnn4cccnc34)c(C3CCN(CC(F)(F)F)CC3)cc2O1 noted as 7.37

Lab book: pKi of Cc1cnc2c(C(=O)Nc3cc4c(cc3N3CCOCC3)C(=O)N(C[C@@H](F)C(C)(C)O)C4)cnn2c1 noted as 8.70

Lab book: pKi of CNc1cnc2c(C(=O)Nc3cc4c(cc3N3CCN(CC(F)F)CC3)O[C@](C)(CO)C4)cnn2c1 noted as 8.52

Lab book: pKi of C[C@@]1(C(F)F)Cc2cc(NC(=O)c3cnn4cccnc34)c(N3CCOCC3)cc2O1 noted as 8.02

Lab book: pKi of CC1(C)Cc2cc(NC(=O)c3cnn4cccnc34)c(N3CCN(Cc4ncc[nH]4)CC3)cc2O1 noted as 8.40

Lab book: pKi of CC1(C)Cc2cc(NC(=O)c3cnn4cccnc34)c([C@@H]3C[C@H]3CO)cc2O1 noted as 7.06

Lab book: pKi of COc1cc2c(cc1NC(=O)c1cnn3cccnc13)CC(C)(C)O2 noted as 7.42

Lab book: pKi of CC1(C)Cc2cc(NC(=O)c3cnn4cccnc34)c(N3CCCC3)cc2O1 noted as 7.92

Lab book: pKi of CC1(C)Cc2cc(NC(=O)c3cnn4cccnc34)c(O[C@H]3CCN(CC(N)=O)C3)cc2O1 noted as 8.22

Lab book: pKi of CC1(C)Cc2cc(NC(=O)c3cnn4cccnc34)c(N3CCC(CO)CC3)cc2O1 noted as 8.82

Lab book: pKi of Cc1cc(COc2cc3c(cc2NC(=O)c2cnn4cccnc24)CC(C)(C)O3)n[nH]1 noted as 7.23

Lab book: pKi of Cn1ccc(-c2cc3c(cc2NC(=O)c2cnn4cccnc24)CC(C)(C)O3)n1 noted as 6.62

Lab book: pKi of O=C(Nc1cc2c(cc1N1CCOCC1)OC1(CCN(CC(F)F)CC1)C2)c1cnn2cccnc12 noted as 8.24

Lab book: pKi of CC1(C)Cc2cc(NC(=O)c3cnn4cccnc34)c(N3CCN(CCC(N)=O)CC3)cc2O1 noted as 8.24

Lab book: pKi of CC(C(=O)NC1CC1)N1CCN(c2cc3c(cc2NC(=O)c2cnn4cccnc24)CC(C)(C)O3)CC1 (stereo not shown) noted as 7.44

Lab book: pKi of C[C@@]1(CO)Cc2cc(NC(=O)c3cnn4cccnc34)c(N3Cc4cccnc4C3)cc2O1 noted as 7.85

Lab book: pKi of C[C@@]1(CO)Cc2cc(NC(=O)c3cnn4cccnc34)c(N3CCC(F)(F)CC3)cc2O1 noted as 7.80

Lab book: pKi of CC1(C)Cc2cc(NC(=O)c3cnn4cccnc34)c(N3CCOCC3)cc2O1 noted as 8.30

Lab book: pKi of CN1CCC2(CC1)Cc1cc(NC(=O)c3cnn4cccnc34)c(N3CCN(CC(=O)NC4CC4)CC3)cc1O2 noted as 7.34

Lab book: pKi of CC(C)(O)[C@@]1(C)Cc2cc(NC(=O)c3cnn4cccnc34)c(N3CCOCC3)cc2O1 noted as 8.06

Lab book: pKi of O=C(Nc1cc2c(cc1N1CCOCC1)C(=O)N(CC1CCCCO1)C2)c1cnn2cccnc12 (single isomer, unassigned) [Example 278] noted as 8.40
